- System: SARS-CoV-2
- protocol: microbe, parasite or virus in culture
- condition-description: Severe acute respiratory syndrome coronavirus 2, HeLa-ACE2, 24 h, read-out: CoV-2 EC50 [μM] (Geomeans, n ≥ 2)
Where a name gives a salt, the structure may show the parent alone.
test-readout: EC50 (µM)
Form entry: value (µM) — number only.

Recorded EC50, per entry:
>>> numeric_result("Nc1ncnc2c1nc(Cl)n2[C@@H]1O[C@H](CO)[C@@H](O)[C@H]1O [8-Chloroadenosine]")
0.927
>>> numeric_result("CCN(CC)Cc1cc(Nc2ccnc3cc(Cl)ccc23)ccc1O [Amodioaquine]")
1.19
>>> numeric_result("CN1CCN(CCCN2c3ccccc3Sc3ccc(S(=O)(=O)N(C)C)cc32)CC1 [Thioproperazine]")
3.03
>>> numeric_result("COC(CNCC(C)C)COc1c(C)csc1C(=O)CCc1ccccc1 (centres unmarked) [LG-6-101]")
3.46
>>> numeric_result("COCC12CN(S(=O)(=O)c3ccc4cc(Cl)ccc4c3)CC(=O)N1CC1(CCN(c3ccncc3)CC1)O2 (centres unmarked) [M-55532]")
2.77
>>> numeric_result("CCc1ccc2c(c1)N(CC(C)CN(C)C)c1ccccc1S2 (centres unmarked) [Ethylisobutrazine Hydrochloride]")
2
>>> numeric_result("CN1CCN(C2Cc3cc(Cl)ccc3Sc3ccccc32)CC1 (centres unmarked) [OCTOCLOTHEPIN analog]")
2.49
>>> numeric_result("CCNCc1cc(Nc2ccnc3cc(Cl)ccc23)ccc1O")
1.22

Data request: Consider the compound CC1=C(c2ccc(O)cc2)[C@H](c2ccc(OCCN3CCCCC3)cc2)Oc2cc(O)ccc21 [ACOLBIFENE] and give its measured EC50.
Data returned: 4.79

Data request: How about C=CC(=O)Nc1cc2c(Nc3ccc(F)c(Cl)c3)ncnc2cc1C#CC(C)(C)N1CCN(C)CC1 [MP-412] ?
Data returned: 0.761

Data request: How about CN(C)CCOc1ccc2c(=O)c3ccc(OCCN(C)C)cc3oc2c1 [TILORINE DIHYDROCHLORIDE] ?
Data returned: 0.884

Data request: How about CN(C)CCC(Oc1ccc2c(c1)C(=O)CC(c1ccccc1)O2)c1ccccc1 (centres unmarked) [RFM-007-454-4] ?
Data returned: 3.83

----------
- protocol: in vitro
- condition-description: human, CC50 [μM] (Geomeans, n ≥ 2 except where indicated: *n = 1)
test-readout: CC50

Recorded CC50, per entry:
>>> result("COc1cc(CC2c3cc(OC)c(OC)cc3CCN2C)c(Oc2cc3c(cc2OC)-c2c(O)c(OC)cc4c2C(C3)N(C)CC4)cc1OC (stereo not drawn)")
"> 21.5 µM"
>>> result("C[C@H]1O[C@@H](O[C@H]2[C@@H](O)C[C@@H](O[C@@H]3[C@@H](O)C[C@H](O[C@H]4CC[C@@]5(C)[C@H](CC[C@@H]6[C@@H]5C[C@@H](O)[C@]5(C)[C@@H](C7=CC(=O)OC7)CC[C@]65O)C4)O[C@@H]3C)O[C@@H]2C)C[C@H](O)[C@@H]1O (stereo in doubt)")
"0.12 µM"
>>> result("CN1CCN(C2=Cc3cc(Cl)ccc3/C(=C\\C#N)c3ccccc32)CC1 [Alkene Stereoisomer analog of Rilapine]")
"> 39.8 µM"
>>> result("O=C(CCCN1CCN(c2ccc(F)cc2)CC1)NC1c2ccccc2CSc2ccccc21 (stereo not drawn) [MONATEPIL]")
"> 39 µM"
>>> result("CNCc1ccc(OC)c([C@]2(N3CCC[C@H]3c3ncco3)C(=O)N(S(=O)(=O)c3ccc(OC)cc3)c3ccc(Cl)cc32)c1")
"> 8.46 µM"

Data request: Consider the molecule N#Cc1c(N)nc(N)nc1N[C@H](c1nc2c(F)ccc(Cl)c2c(=O)n1-c1cccnc1)C1CC1 and give its measured CC50.
Data returned: > 31.1 µM

----------
- protocol: in vitro
- condition-description: human, CC50 [μM] (Geomeans, n ≥ 2 except where indicated: *n = 1)
Where a name gives a salt, the structure may show the parent alone.
Listing of recorded CC50 by entry.

Recorded CC50, per entry:
>>> result("CCN(CC)Cc1cc(Nc2ccnc3cc(Cl)ccc23)ccc1O [Amodioaquine]")
"> 39.8 µM"
>>> result("CN1CCN(C2Cc3cc(Cl)ccc3Sc3ccccc32)CC1 (centres unmarked) [OCTOCLOTHEPIN analog]")
"> 28.4 µM"
>>> result("CCCCN(CCCC)CCC(O)c1cc2c(Cl)cc(Cl)cc2c2cc(C(F)(F)F)ccc12 (centres unmarked) [Halofantrine HCl]")
"> 23.9 µM"

Data request: Consider the compound COC(CNCC(C)C)COc1c(C)csc1C(=O)CCc1ccccc1 (centres unmarked) [LG-6-101] and give its measured CC50.
Data returned: > 35.6 µM

Data request: How about CCCCC1CCc2cc(O)cc3c(CCN4CCN(c5cc(C)ccn5)CC4)c(C)n1c23 (centres unmarked) [KC 11404] ?
Data returned: > 20.9 µM

----------
Observed CC50 values for HeLa-ACE2 cells are listed in what follows.

>>> result("NC1(c2ccc(-c3nc4ccn5c(=O)[nH]nc5c4cc3-c3ccccc3)cc2)CCC1")
"> 22.8 µM"
>>> result("Cn1cnc([N+](=O)[O-])c1Sc1ncnc2[nH]cnc12")
"39 µM"

Here is the next item to consider.
Data request: Consider the compound COC(=O)[C@H]1[C@H]2C[C@@H]3c4[nH]c5cc(OC)ccc5c4CCN3C[C@H]2C[C@@H](OC(=O)c2cc(OC)c(OC)c(OC)c2)[C@@H]1OC and give its measured CC50.
Data returned: > 36.4 µM

----------
- System: SARS-CoV-2
- condition-description: Table 4
test-readout: HeLa-ACE2 SI CC50/CoV-2 EC50
Could you respond with only the numeric value?

>>> numeric_result("COC(=O)[C@@]12OC[C@]34[C@H]([C@@H](O)[C@@H]1O)[C@@]1(C)CC(=O)C(O)=C(C)[C@@H]1C[C@H]3OC(=O)[C@H](OC(=O)/C=C(\\C)C(C)C)[C@@H]24 [Bruceantin]")
20.18
>>> numeric_result("Sc1ncnc2nc[nH]c12")
5.51
>>> numeric_result("Nc1ncnc2c1ccn2[C@@H]1O[C@H](CO)[C@@H](O)[C@H]1O")
3.04
>>> numeric_result("CC(=O)O[C@H]1C[C@H](O[C@H]2[C@@H](O)C[C@H](O[C@H]3[C@@H](O)C[C@H](O[C@H]4CC[C@@]5(C)[C@H](CC[C@@H]6[C@@H]5C[C@@H](O)[C@]5(C)[C@@H](C7=CC(=O)OC7)CC[C@]65O)C4)O[C@@H]3C)O[C@@H]2C)O[C@H](C)[C@H]1O[C@@H]1O[C@H](CO)[C@@H](O)[C@H](O)[C@H]1O [LANATOSIDE]")
6.56
>>> numeric_result("CC[C@H]1CN2CCc3cc(OC)c(OC)cc3[C@@H]2C[C@@H]1C[C@H]1NCCc2cc(OC)c(OC)cc21")
5.66

Data request: Consider the compound C=C(C)[C@]12C[C@@H](C)[C@@]34O[C@](Cc5ccccc5)(O[C@@H]1[C@@H]3C=C(COC(=O)Cc1ccc(O)c(OC)c1)C[C@]1(O)C(=O)C(C)=C[C@@H]41)O2 and give its measured HeLa-ACE2 SI CC50/CoV-2 EC50.
Data returned: 5.53

Data request: How about N#Cc1cccc(C(C(=O)NCC(c2ccccc2)c2ccccc2)N(CCc2c[nH]cn2)C(=O)c2ccccc2C(=O)c2ccccc2)c1 (centres unmarked) ?
Data returned: 4.01

Data request: How about COC1CC(OC2CCC3(C=O)[C@H]4CCC5(C)C(C6=CC(=O)OC6)CCC5(O)[C@@H]4CCC3(O)C2)OC(C)C1O (some centres unmarked) ?
Data returned: 1.21

Data request: How about O=c1[nH]c(=O)n([C@@H]2O[C@H](CO)[C@@H](O)[C@H]2O)cc1F ?
Data returned: 0.03

Data request: How about COC(=O)[C@]12CCC(C)(C)C[C@H]1[C@H]1C(=O)C=C3[C@@]4(C)C=C(C#N)C(=O)C(C)(C)[C@@H]4CC[C@@]3(C)[C@]1(C)CC2 ?
Data returned: 5.73

Data request: How about CNC(=O)n1ccc2cc(Oc3ccnc(NC(=O)c4ccc(C5CCN(CCO)CC5)cc4)c3)c(OCCOC)cc21 ?
Data returned: 8.01

----------
Observed HeLa-ACE2 CC50/CoV-2 EC50 values for SARS-CoV-2 are listed in what follows.
Could you respond with only the numeric value?

Recorded HeLa-ACE2 CC50/CoV-2 EC50, per entry:
>>> numeric_result("Nc1cc(OCC2CC2)c(C(=O)NC2CN3CCC2CC3)cc1Cl (centres unmarked) [Pancopride]")
4.32
>>> numeric_result("C[C@@H](n1cnc2cc(Cl)ccc2c1=O)[C@](O)(Cn1cncn1)c1ccc(F)cc1F")
6.6
>>> numeric_result("C=CC(=O)Nc1cc2c(Nc3ccc(F)c(Cl)c3)ncnc2cc1C#CC(C)(C)N1CCN(C)CC1")
4.18
>>> numeric_result("CCC(CC)COC(=O)[C@H](C)N[P@](=O)(OC[C@H]1O[C@@](C#N)(c2ccc3c(N)ncnn23)[C@H](O)[C@@H]1O)Oc1ccccc1")
78.7
>>> numeric_result("c1ccc2c(c1)Sc1ccccc1N2CC1CN2CCC1CC2 (centres unmarked)")
6.83
>>> numeric_result("CN(C)CC1=C[CH]([Fe][CH]2C=CC=C2)C=C1CNc1ccnc2cc(Cl)ccc12 (centres unmarked)")
10.29

Data request: Consider the molecule C=C(C)[C@@H]1CC[C@]2(C(=O)OCC(N)(CO)CO)CC[C@]3(C)[C@H](CC[C@@H]4[C@@]5(C)CC[C@H](OC(C)=O)C(C)(C)[C@@H]5CC[C@]43C)[C@@H]12 and give its measured HeLa-ACE2 CC50/CoV-2 EC50.
Data returned: 4.37

Data request: How about COc1cc(C(C)=O)ccc1OCCCN1CCC(C(O)(c2ccc(F)cc2)c2ccc(F)cc2)CC1 ?
Data returned: 5.44

All figures here come from patent US20230346820A1.
